- protocol summary: Equilibration of previtamin to vitamin form during binding incubation (HPLC)
- Type: physicochemical
- experimental setup: end of the VDR binding incubation, read-out: fraction equilibrated to the vitamin form
value type: degraded

molecule	endpoint value
CC1=C(/C=C\C2=CCC[C@]3(C)[C@@H]([C@H](C)CCCC(C)(C)O)CC[C@@H]23)C[C@@H](O)C[C@@H]1O [1α,25-(OH)2 preD3, 1α,25-dihydroxyprevitamin D3]	~2%

###

- protocol summary: Comparison of oral bioavailability in rachitic rats (Example 5)
- Format: in vivo, rat
- experimental setup: rat, in vivo, 0.0015 mg/kg, 12 h after single oral dose 0.255 μg (approximately 1.5 μg/kg) in fractionated coconut oil, n=6, ± SD, ** p < 0.01 relative to 1α,25(OH)2 D3, read-out: Serum 1α,25-(OH)2 D3

compound	concentration at 12 h (ng/mL)
C=C1/C(=C\C=C2/CCC[C@]3(C)[C@@H]([C@H](C)CCCC(C)(C)O)CC[C@@H]23)C[C@@H](O)C[C@@H]1O [1α,25-(OH)2 D3, 1α,25-dihydroxyvitamin D3]	0.327
